# Tested on: SNB-75 CNS
# method: NCI-60 one-dose screen, 48 h
# condition-description: 10 µM unless noted
This is part of a sample that, as a whole, favours compounds with a hit. Of some 83,000 tested, about 20% had one in any assay. The source made the active and inactive calls. Rule for the calls: active = growth percent below 10; inactive = the rest.
Permitted responses: active, inactive

                                   molecule     group
0  Nc1c(C(=O)Nc2ccccc2)sc2nc3c(cc12)CN(C(=O)OCc1ccccc1)CC3  inactive
1  COc1ccc(NC(=O)Nc2ccc(Nc3nc(C)cc(Nc4ccc(C)cc4)n3)cc2)cc1    active
2  O=C(O)COc1ccc2c(=O)c3sc4c(=O)c5ccccc5c(=O)c4c3c(=O)c2c1    active
3  C=C1C(=O)O[C@H]2[C@H]1CC/C(COC(=O)c1cccnc1)=C\CC[C@@]1(C)O[C@@H]21  inactive
4  C=CCn1c(CN2CCN(c3cc4c(cc3F)c(=O)c(C(=O)O)cn4C3CC3)CC2)n[nH]c1=S  inactive

Q) Could you kindly confirm the outcome this assay logged for N#CCNc1ccc(C(=O)O)cc1 ?
A) inactive

Q) Short answer needed: outcome of this test for O=C1Nc2ccccc2C12C=C(c1ccccc1)Nc1c2c(-c2ccccc2)nn1-c1ccccc1 (stereo not given) ?
A) inactive

Q) Hi, do you know how O=C(CN1N=C(c2ccc(F)cc2)CCC1=O)Nc1nccs1 came out in this test?
A) inactive

Q) In this assay, the call recorded for CSc1cccc(NC(=O)Nc2nc3c(C)cccc3s2)c1 was what?
A) inactive

Q) Hi team, can someone confirm the assay call for CCCCCCN1C(=O)CN=C1Nc1ccc2cc3ccc(NC4=NCC(=O)N4CCCCCC)cc3nc2c1 ?
A) inactive

---

# Tested on: DU-145 prostate
# method: NCI-60 one-dose screen, 48 h (100 = growth as untreated, 0 = no growth, -100 = all killed)
# condition-description: 10 µM unless noted
This is part of a sample that, as a whole, favours compounds with a hit. Of some 83,000 tested, about 20% had one in any assay.
Friendly reminder: growth below 90% is 1, at or above is -1.

Examples from the recorded data:
>>> print(df.to_string())
                                   molecule  group
0  CCO/C=N/S(=O)(=O)c1cc2c(cc1Cl)NC=NS2(=O)=O     -1
1  O=C(NC[C@H](O)CN1CCc2ccccc2C1)c1cc(NC2COC2)ncn1     -1
2  COc1ccc2nc(-c3ccc(Cl)cc3)cc(C(=O)N3N=C(c4ccc(N)cc4)CC3c3ccccc3)c2c1 (centres undefined)      1
3  COc1cc(C2=NNC(c3ccc(N(C)C)cc3)C2)cc(OC)c1OC (centres undefined)      1
4  N#Cc1c(-c2ccc(Cl)cc2)cc(-c2cc3ccccc3o2)nc1SCC(=O)c1ccc(Cl)cc1     -1

Q) Hello, is growth of the following molecule strictly smaller than 90%? O=C1Nc2ccccc2C12C=C(c1ccccc1)Nc1c2c(-c2ccccc2)nn1-c1ccccc1 (centres undefined)
A) 1

Q) Given the entry C=C(C)[C@@H]1CC[C@]2(C(=O)O)CC[C@]3(C)[C@H](CC[C@@H]4[C@@]5(C)C[C@@H](CC#Cc6ccccc6)C(=O)C(C)(C)[C@@H]5CC[C@]43C)[C@@H]12 , would its reported growth be below 90%?
A) 1

Q) Determine whether this molecule shows growth lower than 90% (ties excluded): COc1cccc2c1-c1ccccc1C2=O
A) 1
